Exercise: state measured Kd for each of the binders provided.
targetOfAssay: T1, SHP-2 N-terminal + C-terminal (N+C) SH2 domains (human, UniProt Q06124 2-219)
T1 construct: SHP-2, human, N-terminal + C-terminal SH2 domains, aa 2–219; also called SHP-2 (SH2-SH2); SHP2 N+C SH2; source: E. coli BL21(DE3)pLysS, purified (Oxford Protein Production Facility / in house; size exclusion chromatography)
T1 sequence (looked up): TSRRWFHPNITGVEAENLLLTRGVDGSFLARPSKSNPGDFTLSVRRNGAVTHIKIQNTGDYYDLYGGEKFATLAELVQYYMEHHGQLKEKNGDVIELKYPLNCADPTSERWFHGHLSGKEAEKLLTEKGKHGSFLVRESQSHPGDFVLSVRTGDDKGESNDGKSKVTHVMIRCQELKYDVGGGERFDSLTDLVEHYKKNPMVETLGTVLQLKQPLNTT
protocolSummary: SPR; biotinylated tandem phosphopeptides immobilised on streptavidin chip; SHP-2 N+C SH2 injected; 25°C; HBS-EP; equilibrium binding (Table 4)
conditionInfo: both partners purified
Non-standard residues stand in square brackets, D forms with d. No end group written: not given here. *: point of attachment. Biotin = O=C1N[C@H]2[C@H](CS[C@H]2CCCCC(=O)*)N1; pY = N[C@@H](Cc1ccc(OP(=O)(O)O)cc1)C(=O)O
Answers are plain numbers, in µM.

Known Kd results, listed for orientation:
binder	recordedMeasurement
EDTLTYADLDMVHLNRTPKQPAPKPEPSFSEYASVQV (also: phosphorylated, sites not given here, biotinylated, site not given here) [SIRPα ITIM3+ITIM4 tandem phosphopeptide]	6.4
Biotin-EFLTI[pY]EDVKDLKTRRNHEQEQTFPGGGSTI[pY]SMIQS (CD244 (SLAMF4), human, cytoplasmic stretch with ITSM1 and ITSM2; also called tandem ITSM peptide; source: synthetic peptide (Peptide Protein Research Ltd)) [CD244 ITSM1+ITSM2 tandem phosphopeptide]	1.4

I would be grateful if you could provide Kd for each of the following entries.
1. Biotin-TNDIT[pY]ADLNLPKGKKPAPQAAEPNNHTE[pY]ASIQT (SIRPα, human, cytoplasmic stretch with ITIM1 and ITIM2; source: synthetic peptide (Peptide Protein Research Ltd)) [SIRPα ITIM1+ITIM2 tandem phosphopeptide]
2. Biotin-PAYTL[pY]SLIQPSRKSGSRKRNHSPSFNSTI[pY]EVIGK (CD244 (SLAMF4), human, cytoplasmic stretch with ITSM3 and ITSM4; source: synthetic peptide (Peptide Protein Research Ltd)) [CD244 ITSM3+ITSM4 tandem phosphopeptide]

1. 0.5
2. 7.4
